B1: POMT2 (parent)
chain: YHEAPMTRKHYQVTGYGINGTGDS

# Variants of: B1
# assay: protein stability index of a GFP-peptide fusion (GPS, HEK-293T) (PSI 1-6); higher = more stable;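 also: lentivirally expressed fusions sorted by FACS into six bins by GFP to DsRed ratio, PSI derived from sequencing read proportions per bin multiplied by bin number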
# assay_context: c terminus: a fixed tail appended
Entries and their measured protein stability index follow.

sequence_chain	protein stability index
YHEAPMTRKHYQVTGYGINGTGDI	2.16
YHEAPMTRKHWQVTGYGINGTGDS	1.7
YHEAPMTRKHYMVTGYGINGTGDS	2.34
YHEGPMTRKHYQVTGYGINGTGDS	2.37
YHEAPMTRKHYPVTGYGINGTGDS	2.37
YHEAPMTRKHYQVTGYGINGAGDS	2.56
YHEAPMTRKHYQVTGYWINGTGDS	2.6
YHEAPMTRDHYQVTGYGINGTGDS	3.42
YHEAPMTRKHYQVTGYGIPGTGDS	2.4
YHEAPMTRKQYQVTGYGINGTGDS	2.87
YHEAPRTRKHYQVTGYGINGTGDS	2.7
YHEAPMTGKHYQVTGYGINGTGDS	2.74
YHEAPMTRKHYQVDGYGINGTGDS	3.36
YHEAPMTRKHYQVTGYGIVGTGDS	2.03
YHLAPMTRKHYQVTGYGINGTGDS	1.61
RHEAPMTRKHYQVTGYGINGTGDS	3.51
YHEAPMTRKHYQVTGKGINGTGDS	3.2
YHEAPMTRKHYQVTGYGRNGTGDS	2.55
YHEAPMTRKHYQVTGCGINGTGDS	2.51
YHEAPMTRKHYQVTGYDINGTGDS	2.51
YHEAPMTRKHYQVTGYGINGTGDQ	1.68
YHEAPMTRGHYQVTGYGINGTGDS	2.51

FYI, the data here is from the supplement of paper PMC10567573.
